Each item that follows carries a reported combination Emax.
- Test system: SKN (Other Solid Carcinomas)
- Measurement Protocol: combination Emax (second highest fraction inhibited in the dose matrix, 72 h); higher = more inhibition; extreme values may be limits of the assay
Observable: combination Emax

- COc1cccc2c1C(=O)c1c(O)c3c(c(O)c1C2=O)C[C@@](O)(C(=O)CO)C[C@@H]3O[C@H]1C[C@H](N)[C@H](O)[C@H](C)O1 [Doxorubicin] + Cc1cc2ncnn2cc1Nc1ncc2c(n1)n(C1CCOCC1)c(=O)n2C [AZD7648] (first compound max 1 µM, 7x7, partner max 10 µM): 0.779
- CC(=O)Nc1cccc(-n2c(=O)n(C3CC3)c(=O)c3c(Nc4ccc(I)cc4F)n(C)c(=O)c(C)c32)c1 [Trametinib] + Cc1nc(-c2cn3c(n2)-c2ccc(-c4cnn(C(C)(C)C(N)=O)c4)cc2OCC3)n(C(C)C)n1 [Taselisib] (first compound max 1 µM, 7x7, partner max 10 µM): 0.676
- CC1(C)CCC(CN2CCN(c3ccc(C(=O)NS(=O)(=O)c4ccc(NCC5CCOCC5)c([N+](=O)[O-])c4)c(Oc4cnc5[nH]ccc5c4)c3)CC2)=C(c2ccc(Cl)cc2)C1 [Venetoclax] + CCN(CCO)CCCOc1ccc2c(Nc3cc(CC(=O)Nc4cccc(F)c4)[nH]n3)ncnc2c1 [AZD2811] (first compound max 1 µM, 7x7, partner max 1 µM): 0.242

----------
- Tested on: NCI-H2122 (Lung Adenocarcinoma)
- Measurement Protocol: combination Emax (second highest fraction inhibited in the dose matrix, 72 h); higher = more inhibition; extreme values may be limits of the assay
Listing: combination Emax of selected molecules
Observable: combination Emax

- Cc1cc2ncnn2cc1Nc1ncc2c(n1)n(C1CCOCC1)c(=O)n2C [AZD7648] + C[C@@H]1COCCN1C2=NC(=NC(=C2)C3(CC3)[S@](=N)(=O)C)C4=C5C=CNC5=NC=C4 [AZD6738] (first compound max 10 µM, 7x7, partner max 10 µM): 0.949
- CC(=O)c1c(C)c2cnc(Nc3ccc(N4CCNCC4)cn3)nc2n(C2CCCC2)c1=O [Palbociclib] + Cc1c2c(nn1C)CSCc1cc(n(C)n1)CSc1cc(c3ccccc3c1)OCCCc1c(C(=O)O)n(C)c3c-2c(Cl)ccc13 [AZD5991] (first compound max 10 µM, 7x7, partner max 1 µM): 0.773
- CN(CCO)CC[C@H](CSc1ccccc1)Nc1ccc(S(=O)(=O)NC(=O)c2ccc(N3CCC([C@@H](O)c4ccccc4-c4ccc(Cl)cc4)CC3)cc2)cc1S(=O)(=O)C(F)(F)F [AZD4320] + C=CCn1c(=O)c2cnc(Nc3ccc(N4CCN(C)CC4)cc3)nc2n1-c1cccc(C(C)(C)O)n1 [AZD1775] (first compound max 1 µM, partner max 1 µM): 0.953
- Cc1c2c(nn1C)CSCc1cc(n(C)n1)CSc1cc(c3ccccc3c1)OCCCc1c(C(=O)O)n(C)c3c-2c(Cl)ccc13 [AZD5991] + C[C@@H]1COCCN1C2=NC(=NC(=C2)C3(CC3)[S@](=N)(=O)C)C4=C5C=CNC5=NC=C4 [AZD6738] (first compound max 1 µM, 7x7, partner max 10 µM): 0.957
- CN(CCO)CC[C@H](CSc1ccccc1)Nc1ccc(S(=O)(=O)NC(=O)c2ccc(N3CCC([C@@H](O)c4ccccc4-c4ccc(Cl)cc4)CC3)cc2)cc1S(=O)(=O)C(F)(F)F [AZD4320] + C[C@@H]1COCCN1C2=NC(=NC(=C2)C3(CC3)[S@](=N)(=O)C)C4=C5C=CNC5=NC=C4 [AZD6738] (first compound max 1 µM, 7x7, partner max 10 µM): 0.972
- CCN(CCO)CCCOc1ccc2c(Nc3cc(CC(=O)Nc4cccc(F)c4)[nH]n3)ncnc2c1 [AZD2811] + C=CCn1c(=O)c2cnc(Nc3ccc(N4CCN(C)CC4)cc3)nc2n1-c1cccc(C(C)(C)O)n1 [AZD1775] (first compound max 1 µM, partner max 1 µM): 0.897
- COc1nnc2ccc(N3CCC(c4ccc(OCCN5CCN(C)C(=O)[C@H]5C)cc4)CC3)nn12 [AZD5153] + CN(CC[C@H](CSC1=CC=CC=C1)NC2=C(C=C(C=C2)S(=O)(=O)NC(=O)C3=CC=C(C=C3)N4CCC(CC4)[C@H](C5=CC=CC=C5C6=CC=C(C=C6)Cl)O)S(=O)(=O)C(F)(F)F)CCO [AZD4320] (first compound max 1 µM, 7x7, partner max 1 µM): 0.759

----------
Attribute: Bliss excess
- Test system: Ca-Ski (Cervical Carcinoma)
- Measurement Protocol: Bliss excess, mean over the matrix (fraction); higher = more synergy
Observable: Bliss excess

- Cc1c2c(nn1C)CSCc1cc(n(C)n1)CSc1cc(c3ccccc3c1)OCCCc1c(C(=O)O)n(C)c3c-2c(Cl)ccc13 [AZD5991] + Cn1cnc2c(F)c(Nc3ccc(Br)cc3Cl)c(C(=O)NOCCO)cc21 [Selumetinib] (first compound max 1 µM, 7x7, partner max 3 µM): 0.0502
- C=CCn1c(=O)c2cnc(Nc3ccc(N4CCN(C)CC4)cc3)nc2n1-c1cccc(C(C)(C)O)n1 [AZD1775] + O=C(c1cc(Cc2n[nH]c(=O)c3ccccc23)ccc1F)N1CCN(C(=O)C2CC2)CC1 [Olaparib] (first compound max 1 µM, partner max 10 µM): -0.0474
- COc1nnc2ccc(N3CCC(c4ccc(OCCN5CCN(C)C(=O)[C@H]5C)cc4)CC3)nn12 [AZD5153] + C[C@@H]1COCCN1C2=NC(=NC(=C2)C3(CC3)[S@](=N)(=O)C)C4=C5C=CNC5=NC=C4 [AZD6738] (first compound max 1 µM, 7x7, partner max 10 µM): 0.0406
- CCc1c2c(nc3ccc(O)cc13)-c1cc3c(c(=O)n1C2)COC(=O)[C@]3(O)CC [SN-38] + O=C(c1cc(Cc2n[nH]c(=O)c3ccccc23)ccc1F)N1CCN(C(=O)C2CC2)CC1 [Olaparib] (first compound max 0.3 µM, 7x7, partner max 10 µM): 0.0458

----------
compounds and their reported combination Emax
- Tested on: COLO-668 (Small Cell Lung Carcinoma)
- Measurement Protocol: combination Emax (second highest fraction inhibited in the dose matrix, 72 h); higher = more inhibition; extreme values may be limits of the assay
Observable: combination Emax

* Cc1cc2ncnn2cc1Nc1ncc2c(n1)n(C1CCOCC1)c(=O)n2C [AZD7648] + COc1cc([C@@H]2c3cc4c(cc3[C@@H](O[C@@H]3O[C@@H]5CO[C@@H](C)O[C@H]5[C@H](O)[C@H]3O)[C@H]3COC(=O)[C@H]23)OCO4)cc(OC)c1O [Etoposide] (first compound max 10 µM, 7x7, partner max 10 µM) | 0.862
* Cc1c2c(nn1C)CSCc1cc(n(C)n1)CSc1cc(c3ccccc3c1)OCCCc1c(C(=O)O)n(C)c3c-2c(Cl)ccc13 [AZD5991] + Cn1cnc2c(F)c(Nc3ccc(Br)cc3Cl)c(C(=O)NOCCO)cc21 [Selumetinib] (first compound max 1 µM, 7x7, partner max 3 µM) | 0.666

----------
Parameter: Bliss excess. Scope: all listed entries.
- System: DU-145 (Prostate Carcinoma)
- Measurement Protocol: Bliss excess, mean over the matrix (fraction); higher = more synergy
Observable: Bliss excess

- CC1(C)CCC(CN2CCN(c3ccc(C(=O)NS(=O)(=O)c4ccc(NCC5CCOCC5)c([N+](=O)[O-])c4)c(Oc4cnc5[nH]ccc5c4)c3)CC2)=C(c2ccc(Cl)cc2)C1 [Venetoclax] + C1CN(CCC1(C(=O)N[C@@H](CCO)C2=CC=C(C=C2)Cl)N)C3=NC=NC4=C3C=CN4 [Capivasertib] (first compound max 1 µM, 7x7, partner max 3 µM): -0.0493
- CC1(C)CCC(CN2CCN(c3ccc(C(=O)NS(=O)(=O)c4ccc(NCC5CCOCC5)c([N+](=O)[O-])c4)c(Oc4cnc5[nH]ccc5c4)c3)CC2)=C(c2ccc(Cl)cc2)C1 [Venetoclax] + C[C@@H](Nc1cc(F)cc(F)c1)c1cc(C(=O)N(C)C)cc2c(=O)cc(N3CCOCC3)oc12 [AZD8186] (first compound max 1 µM, 7x7, partner max 3 µM): -0.0239
- CN(CCO)CC[C@H](CSc1ccccc1)Nc1ccc(S(=O)(=O)NC(=O)c2ccc(N3CCC([C@@H](O)c4ccccc4-c4ccc(Cl)cc4)CC3)cc2)cc1S(=O)(=O)C(F)(F)F [AZD4320] + CS(=O)(=O)CCNCc1ccc(-c2ccc3ncnc(Nc4ccc(OCc5cccc(F)c5)c(Cl)c4)c3c2)o1 [Lapatinib] (first compound max 1 µM, 7x7, partner max 10 µM): -0.028

----------
- System: MDA-MB-453 (Breast Carcinoma)
- Measurement Protocol: Bliss excess, mean over the matrix (fraction); higher = more synergy
Attribute: Bliss excess
Observable: Bliss excess

* O=C(c1cc(Cc2n[nH]c(=O)c3ccccc23)ccc1F)N1CCN(C(=O)C2CC2)CC1 [Olaparib] + Cc1c2c(nn1C)CSCc1cc(n(C)n1)CSc1cc(c3ccccc3c1)OCCCc1c(C(=O)O)n(C)c3c-2c(Cl)ccc13 [AZD5991] (first compound max 10 µM, 7x7, partner max 1 µM) | -0.0038
* C=CCn1c(=O)c2cnc(Nc3ccc(N4CCN(C)CC4)cc3)nc2n1-c1cccc(C(C)(C)O)n1 [AZD1775] + CCc1c2c(nc3ccc(O)cc13)-c1cc3c(c(=O)n1C2)COC(=O)[C@]3(O)CC [SN-38] (first compound max 1 µM, partner max 0.3 µM) | -0.0113
* CN(C)CCCOc1ccc(-c2ccc3ncc4c(c3c2)n(C2CCOCC2)c(=O)n4C)cn1 [AZD0156] + C=CCn1c(=O)c2cnc(Nc3ccc(N4CCN(C)CC4)cc3)nc2n1-c1cccc(C(C)(C)O)n1 [AZD1775] (first compound max 1 µM, partner max 1 µM) | -0.0736
* Cc1c2c(nn1C)CSCc1cc(n(C)n1)CSc1cc(c3ccccc3c1)OCCCc1c(C(=O)O)n(C)c3c-2c(Cl)ccc13 [AZD5991] + CCN(CCO)CCCOc1ccc2c(Nc3cc(CC(=O)Nc4cccc(F)c4)[nH]n3)ncnc2c1 [AZD2811] (first compound max 1 µM, 7x7, partner max 1 µM) | 0.125
* CCc1c2c(nc3ccc(O)cc13)-c1cc3c(c(=O)n1C2)COC(=O)[C@]3(O)CC [SN-38] + CN(C)CCCOc1ccc(-c2ccc3ncc4c(c3c2)n(C2CCOCC2)c(=O)n4C)cn1 [AZD0156] (first compound max 0.3 µM, 7x7, partner max 1 µM) | -0.0505
* Cc1c2c(nn1C)CSCc1cc(n(C)n1)CSc1cc(c3ccccc3c1)OCCCc1c(C(=O)O)n(C)c3c-2c(Cl)ccc13 [AZD5991] + Nc1ccn([C@@H]2O[C@H](CO)[C@@H](O)C2(F)F)c(=O)n1 [Gemcitabine] (first compound max 1 µM, 7x7, partner max 0.3 µM) | 0.0145
* C[C@@H](c1ccc2nccn2c1)n1nnc2ncc(-c3cnn(C)c3)nc21 [Savolitinib] + CC1(C)CCC(CN2CCN(c3ccc(C(=O)NS(=O)(=O)c4ccc(NCC5CCOCC5)c([N+](=O)[O-])c4)c(Oc4cnc5[nH]ccc5c4)c3)CC2)=C(c2ccc(Cl)cc2)C1 [Venetoclax] (first compound max 1 µM, 7x7, partner max 1 µM) | -0.0173

Values were extracted from the supplement of paper PMC11061612.
